Reported MIC values for the following compounds.
Tested on: Klebsiella pneumoniae
experiment notes: Antimicrobial activity against multidrug resistant Klebsiella pneumoniae isolate 7 by broth dilution method
Assay type: functional
The reply should contain only the number, in µg/mL.

Take a look at these entries with their results.
record smiles	assay system	MIC [µg/mL]
CCn1cc(C(=O)O)c(=O)c2cc(F)c(N3CCNCC3)cc21	Klebsiella pneumoniae	0.25
O=C(N[C@H](CO)[C@H](O)c1ccc([N+](=O)[O-])cc1)C(Cl)Cl	Klebsiella pneumoniae	32
CN(C)[C@@H]1C(O)=C(C(N)=O)C(=O)[C@@]2(O)C(O)=C3C(=O)c4c(O)cccc4[C@@](C)(O)[C@H]3C[C@@H]12	Klebsiella pneumoniae	2

Now look at this one.
Please report the recorded MIC for C[C@@H]1CN(c2c(F)c(N)c3c(=O)c(C(=O)O)cn(C4CC4)c3c2F)C[C@H](C)N1 .
0.25

---

Reported MIC values for the following molecules.
System: Klebsiella pneumoniae
experiment notes: Antimicrobial activity against multidrug resistant Klebsiella pneumoniae ATCC 11296 by broth dilution method
Format: functional
The reply should contain only the number, in µg/mL.

Take a look at these entries with their results.
molecule	MIC / µg/mL
CCn1cc(C(=O)O)c(=O)c2cc(F)c(N3CCNCC3)cc21	0.5
CC(C)(O/N=C(\C(=O)N[C@@H]1C(=O)N2C(C(=O)[O-])=C(C[n+]3ccccc3)CS[C@H]12)c1csc(N)n1)C(=O)O	0.5

Now look at this one.
Please report the recorded MIC for C[C@@H](O)[C@H]1C(=O)N2C(C(=O)O)=C(SCCNC=N)C[C@H]12 [IMIPENEM ANHYDROUS] .
0.5

---

Reported MIC values for the following compounds.
System: Klebsiella aerogenes
experiment notes: Antimicrobial activity against multidrug resistant Enterobacter aerogenes isolate 14 by broth dilution method in presence of 26.3 mg/L efflux pump inhibitor phenylalanine-arginine-beta-naphthylamide
Assay type: functional
# output: numeric value plus its unit

Take a look at these entries with their results.
record smiles	assay system	MIC
O=C(N[C@H](CO)[C@H](O)c1ccc([N+](=O)[O-])cc1)C(Cl)Cl	Klebsiella aerogenes	64 µg/mL
C[C@@H]1CN(c2c(F)c(N)c3c(=O)c(C(=O)O)cn(C4CC4)c3c2F)C[C@H](C)N1	Klebsiella aerogenes	8 µg/mL
CCn1cc(C(=O)O)c(=O)c2cc(F)c(N3CCNCC3)cc21	Klebsiella aerogenes	512 µg/mL

Now look at this one.
Please report the recorded MIC for CN(C)[C@@H]1C(O)=C(C(N)=O)C(=O)[C@@]2(O)C(O)=C3C(=O)c4c(O)cccc4[C@@](C)(O)[C@H]3C[C@@H]12 .
16 µg/mL

---

System: Klebsiella aerogenes
experiment notes: Antimicrobial activity against multidrug resistant Enterobacter aerogenes isolate 8 by broth dilution method in presence of 26.3 mg/L efflux pump inhibitor phenylalanine-arginine-beta-naphthylamide
Type: functional
measured property: MIC (µg/mL)
The reply should contain only the number, in µg/mL.

Take a look at these entries with their results.
record smiles	measured property	unit info	reported
CCn1cc(C(=O)O)c(=O)c2cc(F)c(N3CCNCC3)cc21	MIC	µg/mL	128
C[C@@H]1CN(c2c(F)c(N)c3c(=O)c(C(=O)O)cn(C4CC4)c3c2F)C[C@H](C)N1	MIC	µg/mL	4
CN(C)[C@@H]1C(O)=C(C(N)=O)C(=O)[C@@]2(O)C(O)=C3C(=O)c4c(O)cccc4[C@@](C)(O)[C@H]3C[C@@H]12	MIC	µg/mL	2

Now look at this one.
Please report the recorded MIC for O=C(N[C@H](CO)[C@H](O)c1ccc([N+](=O)[O-])cc1)C(Cl)Cl .
64
